The values you see were collected from ChEMBL document CHEMBL1139897.

Below are EC50 values measured for Peroxisome proliferator-activated receptor gamma (Homo sapiens).
The reply should be a number in µM, with the unit left off.

Hello, please tell me recorded EC50 for this one: CCO[C@@H](Cc1ccc(OC/C=C/c2cc(C(F)(F)F)cc(C(F)(F)F)c2)cc1)C(=O)O
0.4

Complete the entry with EC50 for CCOc1cc(/C=C/COc2ccc(C[C@H](OCC)C(=O)O)cc2)cc(OCC)c1
0.2

Please report the measured EC50 for CCO[C@@H](Cc1ccc(OC/C=C/c2cc(OC(C)C)cc(OC(C)C)c2)cc1)C(=O)O
0.08

Read the entry CCO[C@@H](Cc1ccc(OC/C=C/c2cc(CCc3ccccc3)cc(CCc3ccccc3)c2)cc1)C(=O)O and write its reported EC50.
5.1

Here's the next entry for you.
Return EC50 for the following molecule: CCO[C@@H](Cc1ccc(OC/C=C/c2cc(OCC(F)(F)F)cc(OCC(F)(F)F)c2)cc1)C(=O)O
0.8

====

# STUDY_SYSTEM: Peroxisome proliferator-activated receptor gamma (Homo sapiens, UniProt P37231)
# Sequence (P37231 whole entry): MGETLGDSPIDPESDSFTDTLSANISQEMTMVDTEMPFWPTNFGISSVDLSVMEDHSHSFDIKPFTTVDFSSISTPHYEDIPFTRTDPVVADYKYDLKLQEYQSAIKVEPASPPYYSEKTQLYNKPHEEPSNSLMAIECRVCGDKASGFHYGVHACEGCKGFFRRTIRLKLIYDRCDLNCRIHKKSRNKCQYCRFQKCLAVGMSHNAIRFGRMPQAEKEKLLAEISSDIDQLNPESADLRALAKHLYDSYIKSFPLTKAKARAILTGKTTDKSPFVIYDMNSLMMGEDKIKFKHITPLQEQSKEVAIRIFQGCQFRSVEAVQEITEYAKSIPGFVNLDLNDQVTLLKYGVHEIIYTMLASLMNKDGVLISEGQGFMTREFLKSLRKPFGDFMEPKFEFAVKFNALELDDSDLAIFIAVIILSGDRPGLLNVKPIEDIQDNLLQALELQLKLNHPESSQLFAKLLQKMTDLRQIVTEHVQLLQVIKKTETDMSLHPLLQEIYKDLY
READOUT_TYPE: pEC50
Entry type: numeric. Quantity: pEC50, the -log10 of concentration in molar units.

Jot down pEC50 (Peroxisome proliferator-activated receptor gamma (Homo sapiens, UniProt P37231)) of CCO[C@@H](Cc1ccc(OC/C=C/c2cc(Br)cc(Br)c2)cc1)C(=O)O .
5.39

With Peroxisome proliferator-activated receptor gamma (Homo sapiens, UniProt P37231) as the test system, provide measured pEC50 for this compound: CCO[C@@H](Cc1ccc(OC/C=C/c2cc(-c3ccc(C(C)(C)C)cc3)cc(-c3ccc(C(C)(C)C)cc3)c2)cc1)C(=O)O
6.00

New cases:
State, for Peroxisome proliferator-activated receptor gamma (Homo sapiens, UniProt P37231), measured pEC50 of the compound listed here: CCO[C@@H](Cc1ccc(OC/C=C/c2cc(OC(=O)c3ccccc3)cc(OC(=O)c3ccccc3)c2)cc1)C(=O)O
6.72

Specify pEC50 for CCO[C@@H](Cc1ccc(OC/C=C/c2cc(OC3CCCC3)cc(OC3CCCC3)c2)cc1)C(=O)O , system Peroxisome proliferator-activated receptor gamma (Homo sapiens, UniProt P37231).
6.52

Provide the reported pEC50 (system: Peroxisome proliferator-activated receptor gamma (Homo sapiens, UniProt P37231)) for CCO[C@@H](Cc1ccc(OC/C=C/c2ccccc2)cc1)C(=O)O
5.10

====

# STUDY_SYSTEM: Peroxisome proliferator-activated receptor alpha (Homo sapiens)
# Sequence (Q07869 whole entry): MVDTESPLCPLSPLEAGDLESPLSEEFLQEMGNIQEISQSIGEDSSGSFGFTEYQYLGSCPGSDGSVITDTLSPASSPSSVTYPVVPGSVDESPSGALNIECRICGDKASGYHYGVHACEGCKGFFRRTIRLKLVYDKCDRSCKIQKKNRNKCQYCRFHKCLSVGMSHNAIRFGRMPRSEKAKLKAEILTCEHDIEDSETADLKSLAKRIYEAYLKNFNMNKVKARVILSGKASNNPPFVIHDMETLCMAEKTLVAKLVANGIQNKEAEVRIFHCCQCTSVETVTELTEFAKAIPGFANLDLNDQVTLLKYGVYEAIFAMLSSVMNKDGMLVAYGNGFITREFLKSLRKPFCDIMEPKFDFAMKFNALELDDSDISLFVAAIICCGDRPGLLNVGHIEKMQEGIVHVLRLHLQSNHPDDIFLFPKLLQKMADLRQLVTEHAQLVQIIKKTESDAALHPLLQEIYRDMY
# EXPERIMENT: Agonist activity at human PPARalpha by transactivation assay
READOUT_TYPE: pEC50
As a rule, pEC50 stands for the negative log10 of the concentration, concentration in M.

Give pEC50 only, for CCO[C@@H](Cc1ccc(OC/C=C/c2cc(/C=C/c3ccccc3)cc(/C=C/c3ccccc3)c2)cc1)C(=O)O , using Peroxisome proliferator-activated receptor alpha (Homo sapiens) data.
7.05

Output reported pEC50 of the compound CCO[C@@H](Cc1ccc(OC/C=C/c2cc(C#Cc3ccccc3)cc(C#Cc3ccccc3)c2)cc1)C(=O)O on Peroxisome proliferator-activated receptor alpha (Homo sapiens).
6.30

Report value only: pEC50, Peroxisome proliferator-activated receptor alpha (Homo sapiens), CCO[C@@H](Cc1ccc(OC/C=C/c2cc(-c3ccccc3)cc(-c3ccccc3)c2)cc1)C(=O)O
7.70

Consider the additional compound presented here.
Please report pEC50 with Peroxisome proliferator-activated receptor alpha (Homo sapiens) for item CCO[C@@H](Cc1ccc(OC/C=C/c2cc(OC(=O)c3ccccc3)cc(OC(=O)c3ccccc3)c2)cc1)C(=O)O .
7.30

====

# STUDY_SYSTEM: Peroxisome proliferator-activated receptor alpha (Homo sapiens) (UniProt Q07869)
# EXPERIMENT: Agonist activity at human PPARalpha by transactivation assay relative to WY-14643
# Type: functional
Each item that follows carries a reported Activity.
I'd appreciate it if you wrote the number followed by its unit.

Study these solved cases before continuing.
Let me know recorded Activity for CCO[C@@H](Cc1ccc(OC/C=C/c2cc(C(F)(F)F)cc(C(F)(F)F)c2)cc1)C(=O)O , thanks.
195%

Look up and state reported Activity for CCO[C@@H](Cc1ccc(OC/C=C/c2ccccc2)cc1)C(=O)O
169%

State its Activity: CCO[C@@H](Cc1ccc(OC/C=C/c2cc(OC3CCCC3)cc(OC3CCCC3)c2)cc1)C(=O)O
135%

Give the value of Activity reported for the following: CCO[C@@H](Cc1ccc(OC/C=C/c2cc(OC(=O)c3ccccc3)cc(OC(=O)c3ccccc3)c2)cc1)C(=O)O
121%

Give Activity for CCOc1cc(/C=C/COc2ccc(C[C@H](OCC)C(=O)O)cc2)cc(OCC)c1
197%

Further cases:
Retrieve Activity measured for CCO[C@@H](Cc1ccc(OC/C=C/c2cc(C#Cc3ccccc3)cc(C#Cc3ccccc3)c2)cc1)C(=O)O and print it.
108%

Name the recorded Activity of the molecule listed here: CCO[C@@H](Cc1ccc(OC/C=C/c2cc(OC(C)C)cc(OC(C)C)c2)cc1)C(=O)O
207%

Report Activity, nothing else, for this molecule: CCO[C@@H](Cc1ccc(OC/C=C/c2cc(-c3ccccc3)cc(-c3ccccc3)c2)cc1)C(=O)O
30%

Give recorded Activity. CCO[C@@H](Cc1ccc(OC/C=C/c2cc(Br)cc(Br)c2)cc1)C(=O)O
121%

Answer with the recorded Activity of CCO[C@@H](Cc1ccc(OC/C=C/c2cc(CCc3ccccc3)cc(CCc3ccccc3)c2)cc1)C(=O)O only.
118%

Read off the recorded Activity for CCO[C@@H](Cc1ccc(OC/C=C(\C)c2ccc(-c3ccccc3)cc2)cc1)C(=O)O
158%

====

# STUDY_SYSTEM: Peroxisome proliferator-activated receptor delta (Homo sapiens, UniProt Q03181)
# Sequence (Q03181 whole entry): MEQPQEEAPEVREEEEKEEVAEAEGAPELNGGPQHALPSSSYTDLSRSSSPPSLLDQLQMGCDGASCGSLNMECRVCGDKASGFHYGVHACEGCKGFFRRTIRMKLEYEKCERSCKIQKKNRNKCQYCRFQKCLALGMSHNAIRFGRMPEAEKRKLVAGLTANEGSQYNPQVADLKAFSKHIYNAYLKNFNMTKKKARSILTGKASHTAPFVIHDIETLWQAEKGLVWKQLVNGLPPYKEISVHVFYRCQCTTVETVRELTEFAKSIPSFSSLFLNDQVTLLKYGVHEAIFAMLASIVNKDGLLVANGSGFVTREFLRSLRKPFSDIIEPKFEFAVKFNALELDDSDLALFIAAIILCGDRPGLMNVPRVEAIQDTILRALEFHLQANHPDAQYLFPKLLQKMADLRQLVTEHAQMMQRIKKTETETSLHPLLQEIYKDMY
# EXPERIMENT: Agonist activity at human PPARdelta by transactivation assay
READOUT_TYPE: EC50 (µM)
Unit µM implied. Number only.

Return reported EC50. Input molecule: CCOc1cc(/C=C/COc2ccc(C[C@H](OCC)C(=O)O)cc2)cc(OCC)c1
7.9

Complete the entry with EC50 for CCO[C@@H](Cc1ccc(OC/C=C/c2cc(OC(C)C)cc(OC(C)C)c2)cc1)C(=O)O
6

For the molecule CCO[C@@H](Cc1ccc(OC/C=C/c2ccccc2)cc1)C(=O)O , report EC50.
18

Report measured EC50; entry is CCO[C@@H](Cc1ccc(OC/C=C/c2cc(-c3ccccc3)cc(-c3ccccc3)c2)cc1)C(=O)O
4

Look up and report measured EC50 for this entry: CCO[C@@H](Cc1ccc(OC/C=C/c2cc(C(F)(F)F)cc(C(F)(F)F)c2)cc1)C(=O)O
1.4

Give reported EC50 value for CCO[C@@H](Cc1ccc(OC/C=C/c2cc(OC)cc(OC)c2)cc1)C(=O)O
13

State its EC50: CCO[C@@H](Cc1ccc(OC/C=C/c2cc(OC3CCCC3)cc(OC3CCCC3)c2)cc1)C(=O)O
15

Kindly indicate its recorded EC50. Item: CCO[C@@H](Cc1ccc(OC/C=C/c2cc(Br)cc(Br)c2)cc1)C(=O)O
20

Provide EC50 value for the following molecule: CCO[C@@H](Cc1ccc(OC/C=C/c2cc(OCC(F)(F)F)cc(OCC(F)(F)F)c2)cc1)C(=O)O
4

====

# EXPERIMENT: Half life in rat at 2.5 mg/kg, po
# Format: ADME, organism-based
# Parameters: dose 2.5 mg/kg, route oral
# STUDY_CONDITIONS: in vivo
READOUT_TYPE: half-life (h)
Numeric answer only, unit h assumed.

Respond only with half-life recorded for CCO[C@@H](Cc1ccc(OC/C=C/c2cc(OC(C)C)cc(OC(C)C)c2)cc1)C(=O)O
2.42

Lab note: next molecule to report on.
Please indicate half-life recorded for CCOc1cc(/C=C/COc2ccc(C[C@H](OCC)C(=O)O)cc2)cc(OCC)c1
2.17

====

# EXPERIMENT: Oral bioavailability in rat at 2.5 mg/kg
# Type: ADME, organism-based
# STUDY_CONDITIONS: in vivo
Quick list: bioavailability per entry.
State just the number; it will be interpreted in %.

Query bioavailability for CCO[C@@H](Cc1ccc(OC/C=C/c2cc(OC(C)C)cc(OC(C)C)c2)cc1)C(=O)O
95

Now consider a different compound.
Query bioavailability for CCOc1cc(/C=C/COc2ccc(C[C@H](OCC)C(=O)O)cc2)cc(OCC)c1
86
